experiment: clinical; details: human, urine, oral, 5 mg
REPORTED PROPERTY: CL renal

1) CC#CCn1c(N2CCC[C@@H](N)C2)nc2c1c(=O)n(Cc1nc(C)c3ccccc3n1)c(=O)n2C ... ~70 mL/min

###

assay: clinical; details: human, urine, po
REPORTED PROPERTY: CL renal

1) CC#CCn1c(N2CCC[C@@H](N)C2)nc2c1c(=O)n(Cc1nc(C)c3ccccc3n1)c(=O)n2C [BI 1356] ... 14 to 70 mL/min
